Experiment: qHTS assay to identify small molecule antagonists of the androgen receptor (AR) signaling pathway using the MDA cell line in the presence of 0.5 nM R1881 - cell viability counter screen (AID 1259242); further: nearly all actives have a fitted effect of over 45% in size
Conditions: MDA-kb2 viability, CellTiter-Fluor protease fluorescence, 16 h; series mostly up to 92.4 µM
Records with an inconclusive call do not appear. The source made the active and inactive calls. The call rests on the fitted dose curve; in most records, active means well fitted cell-killing curve with a large enough effect in the repeat runs; inconclusive means weak or mixed curves, or effect the other way; inactive means flat fitted curve, though single readings scatter.
Assign a class; possible classes are Yes (active), No (inactive)

ClC1(Cl)C2(Cl)C3(Cl)C4(Cl)C(Cl)(Cl)C5(Cl)C3(Cl)C1(Cl)C5(Cl)C24Cl (stereo not drawn) :: No
CCC[CH2][Sn]([CH2]CCC)([O]C(C)=O)[O]C(C)=O :: Yes
O=c1[nH]c2cc(Cl)ccc2n1C1CCNCC1 :: No

// outcome(item) with item = "NC(=O)C(Cl)Cl"
No

Tell me the recorded outcome of this test for "Nc1cc(Cl)ccc1Cl" .
No

Please indicate how the test categorized "CCN(CC)CCc1c[nH]c2ccccc12" .
No

Hi, do you know how "CSC(C)(C)/C=N/O" came out in this test?
No

// return assay outcome for "CCCN"
No

----------
Assay: qHTS assay to identify small molecule antagonists of the vitamin D receptor (VDR) signaling pathway - cell viability counter screen (AID 743225); further: nearly all actives have a fitted effect of over 50% in size
Conditions: VDR-bla HEK293T viability, CellTiter-Glo luminescence, 16 h; series mostly up to 61 µM
Results filed as inconclusive are left out. The source made the active and inactive calls. Calls come from the whole dose curve; as a rule, active = well fitted cell-killing curve with a large enough effect in the repeat runs; inconclusive = weak or mixed curves, or effect the other way; inactive = no such curve, though single readings can be large or run the other way.
Your answer must be one of the following: yes (1) for active, no (0) for inactive

Consider the worked cases shown below.
C=C(C)C(=O)[O][Sn]([CH2]CCC)([CH2]CCC)[CH2]CCC :: yes (1)
Cc1ccccc1OP(=O)(Oc1ccccc1C)Oc1ccccc1C :: no (0)

Per the assay record, what outcome was assigned to "CCCCCON=O" ?
no (0)

Write down the call the test reported for this compound. Item: "CCCCCCCc1ccc(O)cc1"
no (0)

Outcome? CC(C)[C@@H](Nc1ccc(C(F)(F)F)cc1Cl)C(=O)OC(C#N)c1cccc(Oc2ccccc2)c1 (stereo not given in full)
no (0)

GET /call?item= CC[N+]1(CC)CCC(OC(=O)C(O)(c2ccccc2)c2ccccc2)C1 (stereo not given) returns the recorded outcome of this test.
no (0)

Call for entry "Clc1cc(Cl)c(-c2cc(Cl)c(Cl)cc2Cl)cc1Cl" :
no (0)

Returns: the outcome recorded for "CNC(=O)/C=C(\C)OP(=O)(OC)OC" in this assay.
no (0)

Status in this test for "c1csc(-c2ccc(-c3cccs3)s2)c1" ?
no (0)

Each compound tested received a call. Report the one for "BrCC(Br)(Br)Br" .
no (0)

----------
Test: qHTS RealTime-Glo MT Cell Viability Assay in HEK293 cells - 24 hour (AID 1224886); further: nearly all actives have a fitted effect of over 50% in size
Settings: RealTime-Glo luminescence; series mostly up to 76.8 µM
Inconclusive results are not listed. Activity calls are given as the source filed them. The call rests on the fitted dose curve; in most records, active means well fitted cell-killing curve with a large enough effect in the repeat runs; inconclusive means weak or mixed curves, or effect the other way; inactive means flat fitted curve, though single readings scatter.
Output constraint: value belongs to active, inactive

CCC(OC(C)=O)C(CC(C)NC)(c1ccccc1)c1ccccc1 (stereo not given) :: active
Oc1ccc2[nH]cc(CCCCN3CC=C(c4ccccc4)CC3)c2c1 :: active
C#CCO :: inactive
CCCCCCCc1ccc(O)cc1 :: active

So what was the verdict on "BrCCCBr" in this test?
inactive

// outcome(item) with item = "[Cl-].[Cl-].[Sn+2]"
inactive

// outcome(item) with item = "CCCN"
inactive

Per the assay record, what outcome was assigned to "CCN(CC)CCc1c[nH]c2ccccc12" ?
inactive

How did this test come out for "C=CCBr" ?
inactive

What classification did "CCCCN(CCCC)C(=S)S" end up with in this test?
inactive

Call for entry "ClC1=C(Cl)[C@]2(Cl)[C@H]3[C@H]([C@@H]4C=C[C@H]3C4)[C@@]1(Cl)C2(Cl)Cl" :
active

Which outcome was assigned to "Nc1cc(Cl)ccc1Cl" in this test?
inactive

// return assay outcome for COC(=O)C(C)N(C(=O)c1ccco1)c1c(C)cccc1C (stereo not given)
inactive

Identify the outcome logged in this assay for the compound shown: "ClCBr"
inactive

Please state the recorded outcome for this compound: "CCc1cccc(C)c1N(C(=O)CCl)[C@@H](C)COC"
inactive

----------
Test: qHTS assay to identify small molecule antagonists of the retinoid acid receptor (RAR) signaling pathway - cell viability counter screen (AID 1159551); further: nearly all actives have a fitted effect of over 35% in size
Details: C3RL4 cells viability, ATP luminescence (CellTiter-Glo), 6 h; series mostly up to 92.4 µM
Procedure: U.S. Tox21 Program National Center for Advancing Translational Sciences [NCATS] NIH Chemical Genomics Center [NCGC] U.S. Environmental Protection Agency [EPA] National Institutes of Environmental Health Sciences [NIEHS] National Toxicology Program [NTP] U.S. Food and Drug Administration [FDA] […] Also cytotoxicity was assessed by determining the viability of cells based on the quantitation of ATP. […]
Results filed as inconclusive are left out. The source made the active and inactive calls. The call rests on the fitted dose curve; in most records, active means well fitted cell-killing curve with a large enough effect in the repeat runs; inconclusive means weak or mixed curves, or effect the other way; inactive means flat fitted curve, though single readings scatter.
// one of active, inactive, no free text

// below: answered compounds
C1=CCC=C1 :: inactive
O=C(O)CCCCCCNC1c2ccccc2CCc2ccccc21 :: inactive
c1ccc(Nc2ccc(Nc3ccccc3)cc2)cc1 :: inactive
Cc1c([N+](=O)[O-])c(C)c([N+](=O)[O-])c(C(C)(C)C)c1[N+](=O)[O-] :: inactive
CCCCC(CC)COC(=O)OOC(C)(C)C (stereo not drawn) :: inactive

Outcome logged for "CCOP(=O)(Sc1ccccc1)Sc1ccccc1" in this assay:
inactive

Please state the recorded outcome for this compound: CN1CCc2cc3c(cc2C1O)OCO3 (stereo not drawn)
inactive

----------
Assay: Human pregnane X receptor (PXR) small molecule agonists, qHTS cell viability counter screen (AID 1346977); further: nearly all actives have a fitted effect of over 50% in size
Conditions: PXR-Luc HepG2 viability, CellTiter-Fluor, 24 h; series mostly up to 92.4 µM
Inconclusive results are not listed. Active and inactive are the calls of the source. Calls follow the shape of the dose curve; as a rule, active = well fitted cell-killing curve with a large enough effect in the repeat runs; inconclusive = weak or mixed curves, or effect the other way; inactive = flat fitted curve, though single readings scatter.
Field 'call' accepts active, inactive

Oc1cc(Cl)cc(Cl)c1 :: inactive
O=C(Nc1ccc(F)cc1F)c1cccnc1Oc1cccc(C(F)(F)F)c1 :: inactive
CN(C)c1ccc(N)cc1 :: active
O=S1(=O)OCC2C(CO1)C1(Cl)C(Cl)=C(Cl)C2(Cl)C1(Cl)Cl (configuration not stated) :: inactive
Fc1ccc(C(OCCN2CCN(CCCc3ccccc3)CC2)c2ccc(F)cc2)cc1 :: active
CCCCN(CCCC)C(=S)[S-].CCCCN(CCCC)C(=S)[S-].[Ni+2] :: inactive

Fill in: this test's call for "ClC(Cl)C(Cl)(Cl)Cl" is ___
inactive

Identify the outcome logged in this assay for the compound shown: CC(Cc1ccc(O)cc1)NCC(O)c1cc(O)cc(O)c1 (configuration not stated)
inactive

Please let me know the test result on file for C[N+]1(C)[C@@H]2CC[C@H]1CC(OC(=O)C(CO)c1ccccc1)C2 (some centres not stated) .
inactive

----------
Assay: qHTS assay to identify small molecule antagonists of the thyroid receptor (TR) signaling pathway (AID 743065); further: nearly all actives have a fitted effect of over 55% in size
Conditions: GH3.TRE-Luc, T3-stimulated luciferase inhibition, 23.5 h; series mostly up to 70.3 µM
Inconclusive results are not listed. Calls of active or inactive are those of the source. Calls follow the shape of the dose curve; as a rule, active = well fitted inhibition curve with a large enough effect in the repeat runs; inconclusive = weak or mixed curves; inactive = no such curve, though single readings can be large or run the other way.
Give your call using only these classes: active, inactive

C=CCOC(=O)c1ccccc1N :: inactive
CN1CCc2cc(Cl)c(O)cc2[C@H]2c3ccccc3CC[C@@H]21 :: active
N#CC(C#N)=NNc1cccc(Cl)c1 :: active

Assay result, entry CCCCn1cc[n+](C)c1 (tested in a mixture with another compound) — outcome?
inactive

Tell me the recorded outcome of this test for "Fc1ccc(C(OCCN2CCN(CCCc3ccccc3)CC2)c2ccc(F)cc2)cc1" .
active

Which outcome was entered for the compound "CC(C)=CCN1CC[C@@]2(C)c3cc(O)ccc3C[C@@H]1[C@@H]2C" in this test?
active

Test call, this compound: COC(=O)C(C)N(C(=O)c1ccco1)c1c(C)cccc1C (stereo not drawn)
inactive

So what was the verdict on CC(Cl)CCl (stereo not drawn) in this test?
inactive

What outcome does the record of this test show for C#CCC1=C(C)C(OC(=O)C2C(C=C(C)C)C2(C)C)CC1=O (stereo not drawn) ?
active

Lab log entry: "C=CC(=C)C" — outcome as called in the assay?
inactive

Check the results log: what was the call for O=S1(=O)OCC2C(CO1)C1(Cl)C(Cl)=C(Cl)C2(Cl)C1(Cl)Cl (stereo not drawn) ?
active

Assay outcome for "COc1c2c(cc3c1OCO3)CCN(C)C2" : what was it?
inactive

Tell me the assay call for "O=C1C[C@@H]2OCC=C3CN4CC[C@]56c7ccccc7N1[C@H]5[C@H]2[C@H]3C[C@H]46" please.
inactive

# outcome recorded in this test, key = NC1CCC(CC2CCC(N)CC2)CC1 (stereo not drawn)
inactive

Recorded call for "Cc1ccc(C)c2ccccc12" ?
inactive

Recorded test call requested for "CSSC"
inactive

----------
Test: qHTS assay to identify small molecule that activate the aryl hydrocarbon receptor (AhR) signaling pathway - cell viability counter screen (AID 743086); further: nearly all actives have a fitted effect of over 45% in size
Conditions: HepG2-AhR-luc viability, CellTiter-Fluor, 24 h; series mostly up to 70.3 µM
Inconclusive results are not listed. The source made the active and inactive calls. Calls come from the whole dose curve; as a rule, active = well fitted cell-killing curve with a large enough effect in the repeat runs; inconclusive = weak or mixed curves, or effect the other way; inactive = flat fitted curve, though single readings scatter.
Your reply should match one of these outcome classes. y for active, n for inactive

Example cases with answers are listed next.
O=C1C(Cl)=C(Cl)C(=O)C(Cl)=C1Cl :: n
[Cl][Hg][c]1ccccc1 :: y
O=NN(CCO)CCO :: n

Next compound, please.
Could you check what this test reported for CC(C)C(Nc1ccc(C(F)(F)F)cc1Cl)C(=O)OC(C#N)c1cccc(Oc2ccccc2)c1 (configuration not stated) ?
n
